System: affinity purified β2GPI-dependent antiphospholipid antibody
Assay: Competitive inhibition ELISA: recombinant β2GPI proteins compete for antibody binding to coated full length recombinant β2GPI
Design: species or system human
Conditions: Ab 7101
Quick reference: Max (maximum inhibition observed at concentrations tested) of the listed items.
ENDPOINT: Max (maximum inhibition observed at concentrations tested) (%)

INSERT INTO assay_data (molecule, unit_abbreviation, assay_result) VALUES
  ('1----: recombinant β2GPI protein with domain 1 only (SEQ ID NO:4 region), His6 tail (protein) GRTCPKPDDLPFSTVVPLKTFYEPGEEITYSCKPGYVSRGGMRKFICPLTGLWPINTLKCTPRVGHHHHHH', '%', 70),
  ('1234-: recombinant β2GPI deletion mutant with domains 1, 2, 3, 4 (protein) GRTCPKPDDLPFSTVVPLKTFYEPGEEITYSCKPGYVSRGGMRKFICPLTGLWPINTLKCTPRVCPFAGILENGAVRYTTFEYPNTISFSCNTGFYLNGADSAKCTEEGKWSPELPVCAPIICPPPSIPTFATLRVYKPSAGNNSLYRDTAVFECLPQHAMFGNDTITCTTHGNWTKLPECREVKCPFPSRPDNGFVNYPAKPTLYYKDKATFGCHDGYSLDGPEEIECTKLGNWSAMPSCGHHHHHH', '%', 20),
  ('12---: recombinant β2GPI deletion mutant with domains 1 and 2 (protein) GRTCPKPDDLPFSTVVPLKTFYEPGEEITYSCKPGYVSRGGMRKFICPLTGLWPINTLKCTPRVCPFAGILENGAVRYTTFEYPNTISFSCNTGFYLNGADSAKCTEEGKWSPELPVCAPIIGHHHHHH', '%', 20),
  ('--345: recombinant β2GPI deletion mutant with domains 3, 4, 5 (protein) GRIICPPPSIPTFATLRVYKPSAGNNSLYRDTAVFECLPQHAMFGNDTITCTTHGNWTKLPECREVKCPFPSRPDNGFVNYPAKPTLYYKDKATFGCHDGYSLDGPEEIECTKLGNWSAMPSCKASCKLPVKKATVVYQGERVKIQEKFKNGMLHGDKVSFFCKNKEKKCSYTEDAQCIDGTIEVPKCFKEHSSLAFWKTDASDVKPCGHHHHHH', '%', 5),
  ('-2345: recombinant β2GPI deletion mutant with domains 2-5 (protein) GRTPRVCPFAGILENGAVRYTTFEYPNTISFSCNTGFYLNGADSAKCTEEGKWSPELPVCAPIICPPPSIPTFATLRVYKPSAGNNSLYRDTAVFECLPQHAMFGNDTITCTTHGNWTKLPECREVKCPFPSRPDNGFVNYPAKPTLYYKDKATFGCHDGYSLDGPEEIECTKLGNWSAMPSCKASCKLPVKKATVVYQGERVKIQEKFKNGMLHGDKVSFFCKNKEKKCSYTEDAQCIDGTIEVPKCFKEHSSLAFWKTDASDVKPCGHHHHHH', '%', 5);
